Value source: ChEMBL document CHEMBL2311293

pIC50: −log10 of the molar value.
In what follows, each item is paired with its pIC50 for Cannabinoid receptor 2 (Homo sapiens, UniProt P34972).

{"columns": ["compound", "pIC50"],
 "data": [
  ["O=C(NCC1CCCCC1)c1ccncc1NC(=O)c1cccc2ccccc12", "< 5.05"],
  ["O=C(NCC1CCCCC1)c1cccnc1NC(=O)c1cccc2ccccc12", "< 5.00"],
  ["O=C(NCC1CCOCC1)c1ncccc1NC(=O)c1cccc2nccnc12", "< 5.00"],
  ["COc1ccc(NC(=O)c2ccc(C[S+](C)[O-])c3ccccc23)c(C(=O)NCC2CCOCC2)n1 (stereo unspecified)", "< 6.16"],
  ["O=C(NCC1CCOCC1)c1nc(OS(=O)(=O)CCC(F)(F)F)ccc1NC(=O)c1ccc(Cn2ccnn2)c2ccccc12", "< 5.00"],
  ["O=C(NCC1CCOCC1)c1ncccc1NC(=O)c1ccc(C(=O)O)c2ccccc12", "< 5.00"]
]}
